Reference source for all entries: ChEMBL document CHEMBL1126838

Tyrosine-protein kinase Lck (Homo sapiens, UniProt P06239): reported pIC50 for various compounds.
Sequence (P06239 whole entry): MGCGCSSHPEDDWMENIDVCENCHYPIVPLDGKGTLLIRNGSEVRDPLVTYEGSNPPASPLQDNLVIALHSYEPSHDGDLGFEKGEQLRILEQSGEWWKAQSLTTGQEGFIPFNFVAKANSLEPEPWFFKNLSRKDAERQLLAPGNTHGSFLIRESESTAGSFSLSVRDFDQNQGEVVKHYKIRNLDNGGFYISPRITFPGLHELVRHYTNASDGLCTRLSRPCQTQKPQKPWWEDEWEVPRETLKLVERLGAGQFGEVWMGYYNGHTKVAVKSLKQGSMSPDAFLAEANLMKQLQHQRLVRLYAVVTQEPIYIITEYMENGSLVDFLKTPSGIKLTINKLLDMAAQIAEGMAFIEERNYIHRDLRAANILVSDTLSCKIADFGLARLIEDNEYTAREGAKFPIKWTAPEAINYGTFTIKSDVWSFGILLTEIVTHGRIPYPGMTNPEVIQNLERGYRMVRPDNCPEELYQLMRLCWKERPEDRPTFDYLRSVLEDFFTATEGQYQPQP
pIC50: −log10 of the molar value.

# count of solved cases: 2
| molecule | target-or-test-system | result |
| --- | --- | --- |
| C(=C\c1ccc(OCc2ccccc2)c(OCc2ccccc2)c1)/c1cccc(OCc2ccccc2)c1 | Tyrosine-protein kinase Lck (Homo sapiens, UniProt P06239) | < 2.69 |
| C(=C\c1cc(OCc2ccccc2)cc(OCc2ccccc2)c1)/c1ccccc1 | Tyrosine-protein kinase Lck (Homo sapiens, UniProt P06239) | < 2.69 |

Alright, here's another compound for you.
Indicate the recorded pIC50 value for this compound: "C(=C\c1ccc(OCc2ccccc2)c(OCc2ccccc2)c1)/c1ccccc1"
< 2.69
